For each record, write down the corresponding pIC50.
Molecular target: T1, human IL-2Rγc (CD132 protein, Fc Tag) (23-254) (human, UniProt P31785 23-254)
T1 construct: range 23-254; Bought protein; also called hu-IL-2Rγc subunit; IL-2Rγc subunit; not shown: Fc tag of the bought protein
T1 sequence (looked up): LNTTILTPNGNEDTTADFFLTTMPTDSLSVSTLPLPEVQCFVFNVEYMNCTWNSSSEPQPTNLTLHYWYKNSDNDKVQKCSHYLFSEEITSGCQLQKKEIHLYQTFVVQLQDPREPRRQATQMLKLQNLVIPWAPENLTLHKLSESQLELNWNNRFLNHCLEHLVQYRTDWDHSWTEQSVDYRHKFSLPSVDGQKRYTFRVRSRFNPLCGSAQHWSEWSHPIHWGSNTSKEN
Assay: IL-2Rγc IC50, assay not named in Example 29
Primed or numbered codes have the meaning given here. Ends that are not written are not given here. PEG10 = NCCOCCOCCOCCOCCOCCOCCOCCOCCOCCOCCC(=O)O; PEG20′ = not defined here; PEG4′ = not defined here
Numbers only, as −log10 of the molar value.

State the recorded pIC50 for every item in the following list.
1. GGWYPCWMAQLGELCDLDGGGGSGGVVCQDWEGVELCWQGG-{PEG10-PEG 40 kDa branched} (cysteine pairing not given here) [PEG-IL-2Rβγc ligand construct PEG-4]
2. {PEG 20 kDa linear-PEG20′}-GGWYPCWMAQLGELCDLDGGGGSGGVVCQDWEGVELCWQGG (cysteine pairing not given here; reading uncertain) [PEG-IL-2Rβγc ligand construct PEG-5]
3. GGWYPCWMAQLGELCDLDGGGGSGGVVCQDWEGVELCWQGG-{PEG4′-PEG 40 kDa branched} (cysteine pairing not given here) [PEG-IL-2Rβγc ligand construct PEG-2]
4. PEG-IL-2Rβγc ligand construct PEG-3 (cysteine pairing not given here) peptide: {PEG 40 kDa branched}-APAPAPAPAPAPGGWYPCWMAQLGELCDLDGGGGSGGVVCQDWEGVELCWQGG

Reply:
[8.43, 8.39, 6.16, 8.37]
